Parameter IC50: see the listing below.
test system: P. falciparum 3D7 growth, pLDH absorbance; assay: blood-stage malaria parasite growth potency – strain 3D7, dose response (AID 2305)

{"columns": ["COMPOUND", "IC50"],
 "data": [
  ["CCc1ccc(CN2CCC(NC(=O)c3ccc(-c4ccc(N(C)C)cc4)s3)CC2)cc1", "1210 nM"],
  ["O=C(NCCCN1CCOCC1)c1cccc(Nc2nccc(Nc3ccc(Oc4ccccc4)cc3)n2)c1", "770 nM"],
  ["N#Cc1ccc(S(=O)(=O)N2C(c3cccc([N+](=O)[O-])c3)C(C(=O)c3ccccc3)N(C3CCCCC3)C2c2cccc([N+](=O)[O-])c2)cc1 (centres undefined)", "1080 nM"]
]}

Field: next compound
Quick one: IC50 for CN1CCC(COc2ccc(CN3CCC(NC(=O)c4cccc(Cl)c4)CC3)cc2)CC1 ?
890 nM

---

test system: P. falciparum 3D7 growth, pLDH absorbance; assay: blood-stage malaria parasite growth potency – strain 3D7, dose response (AID 2305)
QUANTITY: pIC50
Kindly note that pIC50 refers to -log10 of the concentration in mol/L and answer with the value alone.

Example entries begin here.
{"columns": ["MOLECULE", "pIC50"],
 "data": [
  ["O=C(NCCN1CCOCC1)c1csc(C2CCCN(C(=O)c3ccc(O)c(-c4cc(Cl)cc(Cl)c4)c3)C2)n1 (configuration not stated)", 5.99],
  ["CCCC(=O)c1c(O)c2ccccc2oc1=O", 6.59],
  ["O=C(/C=C/c1ccc(Cl)c(Cl)c1)NCCCCCCN1CCCN(C(=O)Nc2ccc(C(F)(F)F)cc2)CC1", 6.24]
]}

Fill in the recorded pIC50 for this molecule, with P. falciparum 3D7 growth, pLDH absorbance as test system: COc1cc2ncnc(NCCc3ccccc3Cl)c2cc1OC
5.95

Fill in the recorded pIC50 for this molecule, with P. falciparum 3D7 growth, pLDH absorbance as test system: Cc1cc(C(=O)CN2C(=O)NC3(CCCc4ccccc43)C2=O)c(C)n1Cc1ccco1 (configuration not stated)
5.96

Fill in the recorded pIC50 for this molecule, with P. falciparum 3D7 growth, pLDH absorbance as test system: CCCCc1ccc(-c2ccc(-c3c(C)[nH]c(C)c(Br)c3=O)cn2)cc1
7.22

Fill in the recorded pIC50 for this molecule, with P. falciparum 3D7 growth, pLDH absorbance as test system: CCOc1cc(C)ccc1C1CCN(CCCCNC(=O)c2cnc(-c3ccc(C(F)(F)F)cc3)[nH]2)CC1
6.11

Fill in the recorded pIC50 for this molecule, with P. falciparum 3D7 growth, pLDH absorbance as test system: COc1cc2nc(N3CCC(CNC(=O)c4ccc(-c5ccc(C(=O)N(C)C)cc5C)cc4)CC3)nc(N3CCN(C)CC3)c2cc1OC
5.91

Fill in the recorded pIC50 for this molecule, with P. falciparum 3D7 growth, pLDH absorbance as test system: CCCc1cc(OC)c(CC2c3cccc(O)c3CCN2C)cc1OC (configuration not stated)
6.52

Fill in the recorded pIC50 for this molecule, with P. falciparum 3D7 growth, pLDH absorbance as test system: O=[N+]([O-])c1ccc(Oc2c(Cl)cc(S(=O)(=O)NC3CCC(CN4CCC(c5c[nH]c6ccccc56)CC4)CC3)cc2Cl)c(Cl)c1 (configuration not stated)
6.12

Fill in the recorded pIC50 for this molecule, with P. falciparum 3D7 growth, pLDH absorbance as test system: CC(C)CNCc1cccc(-c2cccc(CN(CCCN3CCN(C)CC3)C(=O)/C=C/c3ccccc3)c2)c1
6.03

Fill in the recorded pIC50 for this molecule, with P. falciparum 3D7 growth, pLDH absorbance as test system: Cc1ccc(Nc2ccnc(Nc3ccc(C)c(F)c3)n2)cc1O
6.12

Fill in the recorded pIC50 for this molecule, with P. falciparum 3D7 growth, pLDH absorbance as test system: COc1cccc(CN2CCC(CCOC(c3ccccc3)c3ccc(Cl)cc3)CC2)c1O (configuration not stated)
6.15

Fill in the recorded pIC50 for this molecule, with P. falciparum 3D7 growth, pLDH absorbance as test system: COc1ccc2c(c1)Nc1ccc(Cl)cc1C2N (configuration not stated)
6.52

---

system: P. falciparum 3D7 growth, pLDH absorbance; assay: blood-stage malaria parasite growth potency – strain 3D7, dose response (AID 2305)
QUANTITY: pIC50
Kindly note that pIC50 refers to -log10 of the concentration in mol/L and answer with the value alone.

{"columns": ["COMPOUND", "pIC50"],
 "data": [
  ["CCCc1cc(=O)oc2cc(OC)c(C(=O)CC(C)C)c(OC)c12", 6.00],
  ["Cc1cccc2[nH]c(-c3ccc(-c4ccc(CN5CCN(CCO)CC5)cc4)cc3)nc12", 6.22],
  ["CCN(CC)c1ccc2nc(N)nc(N)c2c1", 7.15],
  ["OC(CN1c2ccccc2Sc2ccccc21)CN(C1CCCCC1)C1CCCCC1 (stereo not given)", 6.19],
  ["CN1CCC(N2CCN(Cc3cccc(-c4ccc(-c5nc6ccc(F)cc6[nH]5)cc4)c3)CC2)CC1", 6.96],
  ["CCc1ccc(NC(=O)c2ccc(CN3CCCN(Cc4cccs4)CC3)cc2)cc1", 6.08]
]}

Quick one: pIC50 for O=C(Nc1ccc(-c2nc3ccccc3[nH]2)cc1)c1ccc(S(=O)(=O)N2CCCCCC2)cc1 ?
6.39

Quick one: pIC50 for Cc1[nH]c(C)c(-c2ccc(-c3ccccc3)nc2)c(=O)c1Br ?
6.18

Quick one: pIC50 for Nc1ncc(-c2ccsc2)c2ccc(-c3cnc[nH]3)cc12 ?
6.24

Quick one: pIC50 for CCCCCC(C)C(C)c1cc(O)c2c3c(c(=O)oc2c1)CN(Cc1ccccc1)CC3 (stereo not given) ?
6.22

---

Parameter IC50: see the listing below.
tested on: P. falciparum 3D7 growth, pLDH absorbance; experiment: blood-stage malaria parasite growth potency – strain 3D7, dose response (AID 2305)
The answer is to be given in nM; state only the numeric part.

Example entries begin here.
{"columns": ["COMPOUND", "STUDY_TARGET", "QUANTITY", "RECORDED_MEASUREMENT"],
 "data": [
  ["COc1ccc2nc(Nc3nc(-c4ccccn4)cs3)sc2c1", "P. falciparum 3D7 growth, pLDH absorbance", "IC50", 1120],
  ["CCN(CC)CCCN(C(=O)c1cc2c(C)nn(-c3ccccc3)c2s1)c1nc(-c2ccc(OC)cc2)cs1", "P. falciparum 3D7 growth, pLDH absorbance", "IC50", 1150],
  ["O=C(Nc1ccc(Cl)cc1)c1ccc(CN2CCCN(Cc3ccccc3)CC2)cc1", "P. falciparum 3D7 growth, pLDH absorbance", "IC50", 750],
  ["c1ccc2c(c1)ncc1c3ccccc3[nH]c21", "P. falciparum 3D7 growth, pLDH absorbance", "IC50", 870],
  ["CN(C)CCN(C)Cc1ccc(-c2ccc(NC(=O)c3cccc(Cl)c3)cc2)cc1", "P. falciparum 3D7 growth, pLDH absorbance", "IC50", 1140]
]}

Quick one: IC50 for O=C(NC1CCN(c2ccc(F)cc2[N+](=O)[O-])CC1)c1cccs1 ?
670

Quick one: IC50 for Cc1cc(N2CCCC2)nc(Nc2ccc(NC(=O)c3ccccc3)cc2)n1 ?
980

Quick one: IC50 for CCCCN1CCCC[C@H]1[C@@H](O)c1ccnc2ccc(OCC)cc12 ?
770

Quick one: IC50 for CCN1CCC(N(Cc2ccc(-c3ccc(Cl)cc3)cc2)C(=O)Cn2c(CCc3cccc(F)c3F)cc(=O)c3ccccc32)CC1 ?
700

Quick one: IC50 for O=C(Nc1ccncc1)c1cn(-c2ccccc2)nc1-c1cccs1 ?
980

Quick one: IC50 for COc1ccc(NC(=O)Nc2ccc(Nc3nc(C)cc(N4CCCC4)n3)cc2)cc1 ?
140

Quick one: IC50 for CCCCCCC(CC)c1cc(O)c2c(c1)OC(C)(C)c1ccncc1-2 (stereo not given) ?
810

Quick one: IC50 for O=C(Nc1ccc(OC2CCN(Cc3ccc(F)cc3)C2)cc1)c1cccs1 (stereo not given) ?
640

Quick one: IC50 for Cc1cc(C(=O)Nc2nc(-c3ccccn3)nc3ccsc23)no1 ?
810

Quick one: IC50 for CC1CCc2c(C(=O)N3CCc4ccccc4C3)csc2C1 (stereo not given) ?
780

---

Parameter pIC50: see the listing below.
tested on: P. falciparum 3D7 growth, pLDH absorbance; experiment: blood-stage malaria parasite growth potency – strain 3D7, dose response (AID 2305)
Kindly note that pIC50 refers to -log10 of the concentration in mol/L and answer with the value alone.

Example entries begin here.
{"columns": ["COMPOUND", "RECORDED_MEASUREMENT"],
 "data": [
  ["COc1ccc(Nc2nc(NN=Cc3cc(Cl)ccc3O)nc(Nc3ccccc3)n2)cc1", 6.19],
  ["COc1ccc(-c2cnc3[nH]cc(-c4ccc(C(=O)O)cc4)c3c2)cn1", 6.27],
  ["Cc1cccc2[nH]c(-c3cccc(-c4ccc(NC(=O)CC5NC(=O)c6ccccc65)cc4)c3)nc12 (centres undefined)", 6.54]
]}

Quick one: pIC50 for CC(Cc1ccc(OCCCCOc2ccccc2)cc1)NCCc1ccc(Oc2ccccc2)cc1 (centres undefined) ?
6.09

Quick one: pIC50 for O=C(/C=C/c1ccc(Cl)c(Cl)c1)NCCCCCN1CCCN(C(=S)Nc2ccc(Cl)cc2)CC1 ?
5.95

Quick one: pIC50 for Cn1ccnc1Sc1ncccc1[N+](=O)[O-] ?
6.01

Quick one: pIC50 for CC(C)(C)c1ccc2nc(-c3ccc(C(=O)NC4CCN(Cc5ccccc5)CC4)s3)[nH]c2c1 ?
6.44

Quick one: pIC50 for CC(CN1CCN(C)CC1)C(=O)Nc1cccc(-c2cccc(-c3nc4ccc(F)cc4[nH]3)c2)c1 (centres undefined) ?
6.57

Quick one: pIC50 for CN(C)CCOc1ccc(N2CCN(CCCCNC(=O)c3ccc(/C=C/c4cc(Cl)cc(Cl)c4)cc3)CC2)cc1 ?
6.00
